Target: CYP2B6 (Homo sapiens, UniProt P20813)
Sequence (P20813 whole entry): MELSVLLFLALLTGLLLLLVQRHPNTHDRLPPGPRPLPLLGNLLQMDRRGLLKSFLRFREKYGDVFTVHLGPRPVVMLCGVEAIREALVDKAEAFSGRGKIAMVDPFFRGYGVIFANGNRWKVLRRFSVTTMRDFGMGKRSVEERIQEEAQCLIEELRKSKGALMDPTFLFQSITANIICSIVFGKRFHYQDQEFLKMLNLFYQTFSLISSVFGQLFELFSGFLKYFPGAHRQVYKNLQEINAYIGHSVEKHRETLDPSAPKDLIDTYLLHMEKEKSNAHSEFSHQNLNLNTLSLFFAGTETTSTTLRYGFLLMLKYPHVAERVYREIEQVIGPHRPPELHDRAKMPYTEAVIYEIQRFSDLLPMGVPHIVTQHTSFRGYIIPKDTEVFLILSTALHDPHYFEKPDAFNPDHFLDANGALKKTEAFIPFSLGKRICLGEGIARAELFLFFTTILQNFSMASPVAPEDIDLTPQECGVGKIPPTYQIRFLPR
Assay type: biochemical
Details: nornicotine formation; nicotine 100 μM; rec CYP2B6 microsomes
recorded_metric: pIC50
API: returns pIC50 as number; meaning -log10 of concentration in mol/L.

Input: State recorded pIC50 with CYP2B6 (Homo sapiens, UniProt P20813), entry C=C(C)[C@@H]1CCC(CO)=C[C@H]1c1c(O)cc(CCCCC)cc1O [7-OH-CBD, 7-hydroxy-cannabidiol] , no comment.
Output: 5.85

====

Target: CYP2B6 (Homo sapiens)
Type: biochemical
Conditions: human, microsomes from CYP2B6-overexpressing HEK293 cells, pH 7.4, probe nicotine (nornicotine formation)
recorded_metric: inhibition at 30 min, 10 µM (%)
Field: numeric (%). Do not append units.

Input: Return inhibition at 30 min, 10 µM (reported value) for this compound: C=C(C)[C@@H]1CCC(C)=C[C@H]1c1c(O)cc(CCCCC)cc1O
Output: 85

====

Target: UGT1A9 (Homo sapiens)
Sequence (O60656 26-530): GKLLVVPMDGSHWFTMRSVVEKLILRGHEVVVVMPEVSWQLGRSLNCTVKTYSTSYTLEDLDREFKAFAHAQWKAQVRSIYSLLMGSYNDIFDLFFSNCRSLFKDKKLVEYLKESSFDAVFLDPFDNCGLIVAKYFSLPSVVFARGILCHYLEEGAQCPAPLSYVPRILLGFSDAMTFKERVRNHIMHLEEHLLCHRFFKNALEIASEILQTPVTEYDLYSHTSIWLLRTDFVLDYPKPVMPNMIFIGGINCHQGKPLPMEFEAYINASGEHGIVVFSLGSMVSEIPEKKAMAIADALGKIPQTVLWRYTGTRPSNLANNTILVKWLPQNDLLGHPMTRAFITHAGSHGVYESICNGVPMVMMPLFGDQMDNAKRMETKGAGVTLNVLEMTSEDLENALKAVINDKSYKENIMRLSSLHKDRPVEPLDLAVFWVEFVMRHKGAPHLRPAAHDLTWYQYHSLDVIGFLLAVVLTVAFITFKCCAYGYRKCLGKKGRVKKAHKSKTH
Format: biochemical
Conditions: IC50, 3HC-Gluc formation; 3HC 30 mM; rec UGT1A9 microsomes; 2% BSA
recorded_metric: IC50 (µM)
Field: numeric (µM). Do not append units.

Input: State recorded IC50 with UGT1A9 (Homo sapiens), entry C=C(C)[C@@H]1CCC(C)=C[C@H]1c1c(O)cc(CCCCC)cc1O , no comment.
Output: 9.7

====

Biological target: CYP2A6 (Homo sapiens)
Sequence (P11509 1-494): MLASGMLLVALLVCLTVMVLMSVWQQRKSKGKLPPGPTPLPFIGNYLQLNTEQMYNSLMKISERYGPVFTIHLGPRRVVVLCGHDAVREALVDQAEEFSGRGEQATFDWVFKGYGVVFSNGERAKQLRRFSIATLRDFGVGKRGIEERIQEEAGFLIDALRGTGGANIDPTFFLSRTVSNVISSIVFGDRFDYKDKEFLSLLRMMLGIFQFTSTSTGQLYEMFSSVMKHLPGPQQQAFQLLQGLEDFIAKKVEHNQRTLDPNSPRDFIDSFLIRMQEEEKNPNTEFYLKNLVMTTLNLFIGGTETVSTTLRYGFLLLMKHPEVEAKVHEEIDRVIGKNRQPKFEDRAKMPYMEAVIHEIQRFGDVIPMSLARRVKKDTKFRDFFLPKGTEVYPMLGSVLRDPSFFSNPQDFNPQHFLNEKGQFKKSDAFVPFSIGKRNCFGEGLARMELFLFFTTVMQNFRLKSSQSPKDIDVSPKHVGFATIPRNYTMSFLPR
Assay type: biochemical
Conditions: IC50,u (binding-corrected IC50), nornicotine formation; nicotine 50 μM; rec CYP2A6 microsomes; IC50 × fu,inc
recorded_metric: pIC50
API: returns pIC50 as number; meaning -log10 of concentration in mol/L.

Input: Return pIC50 (reported value) for this molecule: C=C(C)[C@@H]1CCC(C)=C[C@H]1c1c(O)cc(CCCCC)cc1O [CBD, cannabidiol]
Output: 6.64

Source: paper PMC9945182
